# system_under_test: human cloned 5-HT6 receptors (Homo sapiens)
# Construct: expressed in transfected cells; host or cells: HeLa cells
# Assay type: binding
# assay_conditions: test compound dose 100 nM; displacement of [3H]-LSD; read-out: % Inhibition

>  <input_smiles>
CC1(C)CC(=NNC(=N)N)c2c([nH]c3ccc(OC(F)(F)F)cc23)C1

>  <system_under_test>
human cloned 5-HT6 receptors (Homo sapiens)

>  <inhibition at 0.1 µM (%)>
26

$$$$
>  <input_smiles>
Cc1ccc2[nH]c3c(c2c1)C(=NNC(=N)N)CC(C)(C)C3

>  <system_under_test>
human cloned 5-HT6 receptors (Homo sapiens)

>  <inhibition at 0.1 µM (%)>
38.5

$$$$
>  <input_smiles>
CC(C)c1ccc2[nH]c3c(c2c1)C(=NN(C)C1=NCCN1)CCC3

>  <system_under_test>
human cloned 5-HT6 receptors (Homo sapiens)

>  <inhibition at 0.1 µM (%)>
5.6

$$$$
>  <input_smiles>
CCCCCNC(=N)NN=C1CCCc2[nH]c3ccc(Cl)cc3c21

>  <system_under_test>
human cloned 5-HT6 receptors (Homo sapiens)

>  <inhibition at 0.1 µM (%)>
47

$$$$
>  <input_smiles>
Cc1ccc2[nH]c3c(c2c1)C(=NN(C)C1=NCCN1)CC(C)(C)C3

>  <system_under_test>
human cloned 5-HT6 receptors (Homo sapiens)

>  <inhibition at 0.1 µM (%)>
25.5

$$$$

----------
# system_under_test: human cloned 5-HT6 receptors (Homo sapiens, UniProt P50406)
# Construct: expressed in transfected cells; host or cells: HeLa cells
# Sequence (P50406 whole entry): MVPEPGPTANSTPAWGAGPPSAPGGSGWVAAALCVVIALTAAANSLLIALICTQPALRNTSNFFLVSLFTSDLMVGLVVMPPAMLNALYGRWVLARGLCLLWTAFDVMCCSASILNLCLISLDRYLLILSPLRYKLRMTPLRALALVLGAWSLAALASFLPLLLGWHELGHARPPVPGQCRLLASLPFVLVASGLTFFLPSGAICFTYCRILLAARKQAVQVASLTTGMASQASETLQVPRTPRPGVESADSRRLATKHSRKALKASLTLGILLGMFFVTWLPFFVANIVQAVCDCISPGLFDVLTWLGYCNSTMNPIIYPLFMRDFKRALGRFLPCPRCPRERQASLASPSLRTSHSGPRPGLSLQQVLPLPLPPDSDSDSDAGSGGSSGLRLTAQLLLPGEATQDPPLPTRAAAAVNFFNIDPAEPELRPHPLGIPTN
# Type: binding
# assay_conditions: test compound dose 1000 nM; displacement of [3H]-LSD
Each entry below lists one item and its recorded inhibition at 1 µM value.

>  <compound>
CC(=NNC(=N)N)c1cn(C)c2ccc(NS(=O)(=O)c3ccc(N)cc3)cc12 [Example 10]

>  <system_under_test>
human cloned 5-HT6 receptors (Homo sapiens, UniProt P50406)

>  <result_unit>
%

>  <inhibition at 1 µM>
98.7

$$$$
>  <compound>
CC(=NNC(=N)N)c1c(-c2ccccc2)n(C)c2ccccc12 [Example 86]

>  <system_under_test>
human cloned 5-HT6 receptors (Homo sapiens, UniProt P50406)

>  <result_unit>
%

>  <inhibition at 1 µM>
99.4

$$$$
>  <compound>
N=C(N)N/N=C/c1c(-c2ccccc2)[nH]c2ccccc12 [Example 42]

>  <system_under_test>
human cloned 5-HT6 receptors (Homo sapiens, UniProt P50406)

>  <result_unit>
%

>  <inhibition at 1 µM>
82.1

$$$$
>  <compound>
Fc1ccc2[nH]c3c(c2c1)C(=NNC1=NCCN1)CCC3 [Example 157]

>  <system_under_test>
human cloned 5-HT6 receptors (Homo sapiens, UniProt P50406)

>  <result_unit>
%

>  <inhibition at 1 µM>
96.3

$$$$
>  <compound>
N=C(N)NN=Cc1c(-c2ccc(Cl)cc2)n(Cc2ccccc2Cl)c2ccccc12 [Example 96]

>  <system_under_test>
human cloned 5-HT6 receptors (Homo sapiens, UniProt P50406)

>  <result_unit>
%

>  <inhibition at 1 µM>
15.6

$$$$
>  <compound>
N=C(NCc1ccccc1)NN=Cc1c(-c2ccc(Cl)cc2)[nH]c2ccccc12 [Example 117]

>  <system_under_test>
human cloned 5-HT6 receptors (Homo sapiens, UniProt P50406)

>  <result_unit>
%

>  <inhibition at 1 µM>
69

$$$$
>  <compound>
N=C(N)NN=C(Cc1ccc(Cl)cc1)c1c(-c2ccc(Cl)cc2)[nH]c2ccccc12 [Example 53]

>  <system_under_test>
human cloned 5-HT6 receptors (Homo sapiens, UniProt P50406)

>  <result_unit>
%

>  <inhibition at 1 µM>
33.7

$$$$
>  <compound>
N=C(N)NN=C1CCCc2[nH]c3ccc(F)cc3c21 [Example 156]

>  <system_under_test>
human cloned 5-HT6 receptors (Homo sapiens, UniProt P50406)

>  <result_unit>
%

>  <inhibition at 1 µM>
98.8

$$$$
>  <compound>
N=C(N)NN=C(Cc1ccccc1)c1c(-c2ccccc2)n(-c2ccccc2)c2ccccc12 [Example 84]

>  <system_under_test>
human cloned 5-HT6 receptors (Homo sapiens, UniProt P50406)

>  <result_unit>
%

>  <inhibition at 1 µM>
22.9

$$$$
